target.of.assay: Recombinant KLK2 (Homo sapiens, UniProt P20151)
Construct: made in house; host or cells: baculovirus-insect cell line system
Sequence (P20151 25-261): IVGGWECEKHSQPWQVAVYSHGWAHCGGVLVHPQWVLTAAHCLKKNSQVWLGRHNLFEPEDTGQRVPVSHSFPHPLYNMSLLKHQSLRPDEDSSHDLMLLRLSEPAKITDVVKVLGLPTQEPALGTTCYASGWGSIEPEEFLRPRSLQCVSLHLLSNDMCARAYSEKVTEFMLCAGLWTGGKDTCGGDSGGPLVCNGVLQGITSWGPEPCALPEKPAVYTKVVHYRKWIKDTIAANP
protocol.description: Hydrolysis of FRET peptides by recombinant KLK2 (kinetic parameters)
Format: biochemical
condition.set: pH 8.0, 20 mM Tris–HCl, 1 M sodium citrate, 37 °C, KLK2 1.6 nM; three enzymatic reactions, standard errors 5% or less
Non-standard residues stand in square brackets, D forms with d. No end group written: not given here. *: point of attachment. EDDnp = O=[N+]([O-])c1ccc(NCCN*)c([N+](=O)[O-])c1; 2Abz = Nc1ccccc1C(=O)O
quantity.name: kcat (s^–1)
Write the answer as a number in s^–1, unit excluded.

A selection of reference data follows.
[[record]]
substance = "Abz-KLRSSKQ-EDDnp [parent FRET peptide, cleaved at the R–S peptide bond by KLK2]"
quantity_name = "kcat"
units_of_measure = "s^–1"
experimental_result = 11.3

[[record]]
substance = "Abz-KXRSSKQ-EDDnp, X = H: FRET peptide, S2 series, X = H (N-terminal Abz, C-terminal EDDnp; X = H)"
quantity_name = "kcat"
units_of_measure = "s^–1"
experimental_result = 4.7

[[record]]
substance = "Abz-XLRSSKQ-EDDnp, X = F: FRET peptide, S3 series, X = F [Abz-XLRSSKQ-EDDnp, X = F] (Abz-FLRSSKQ-EDDnp)"
quantity_name = "kcat"
units_of_measure = "s^–1"
experimental_result = 9.6

[[record]]
substance = "Abz-XLRSSKQ-EDDnp, X = E: FRET peptide, S3 series, X = E (Abz-ELRSSKQ-EDDnp)"
quantity_name = "kcat"
units_of_measure = "s^–1"
experimental_result = 7.4

[[record]]
substance = "Abz-KLRXSKQ-EDDnp, X = L: FRET peptide, S1’ series, X = L ([2Abz]KLRLSKQ-EDDnp)"
quantity_name = "kcat"
units_of_measure = "s^–1"
experimental_result = 6.7


### Prompt Requested field: kcat. Item: Abz-KXRSSKQ-EDDnp, X = S: FRET peptide, S2 series, X = S (Abz-KSRSSKQ-EDDnp)
### Response 1.1

### Prompt Requested field: kcat. Item: Abz-KLRSXKQ-EDDnp, X = H: FRET peptide, S2’ series, X = H (N-terminal Abz, C-terminal EDDnp; X = H)
### Response 4.4
